Taken from patent US20140094465A1.

Collected pIC50 values appear next to each entry.
Target: S-nitrosoglutathione reductase (GSNOR) (Homo sapiens, UniProt P11766)
Construct: made in house; host or cells: E. coli
Sequence (P11766 whole entry): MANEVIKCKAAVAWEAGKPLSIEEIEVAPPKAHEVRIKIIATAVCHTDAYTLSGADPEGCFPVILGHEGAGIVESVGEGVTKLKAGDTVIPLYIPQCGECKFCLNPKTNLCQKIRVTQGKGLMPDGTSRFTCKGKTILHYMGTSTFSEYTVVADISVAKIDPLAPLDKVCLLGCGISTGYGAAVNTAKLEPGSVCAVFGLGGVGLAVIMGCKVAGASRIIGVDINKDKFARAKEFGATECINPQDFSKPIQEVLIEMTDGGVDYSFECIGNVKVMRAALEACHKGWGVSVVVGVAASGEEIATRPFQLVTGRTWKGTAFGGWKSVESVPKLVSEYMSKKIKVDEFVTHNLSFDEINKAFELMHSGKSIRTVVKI
Test: GSNOR assay (inhibition of GSNOR activity, NADH absorbance at 340 nm)
Format: biochemical
Settings: GSNOR inhibitor activity, Tables 1-6; read-out: IC50 range
pIC50: −log10 of the molar value.
Quantity: pIC50

Cc1oc2cc(O)ccc2c(=O)c1-c1ccc(C(=O)O)cc1 : 6.00 to 7.00
O=C(O)c1ccc(-c2nc3ccc(O)cc3nc2C(F)(F)F)c(F)c1 : > 7.00
O=c1c(-c2ccc(O)c([N+](=O)[O-])c2)c(C(F)(F)F)oc2cc(O)ccc12 : > 7.00
O=C(O)c1ccc(COc2ccc(O)cc2F)c(F)c1 : 6.00 to 7.00
O=c1nc(-c2ccc(-c3ccc4cc(O)ccc4n3)cc2)[nH]s1 : 6.00 to 7.00
Nc1cc(-c2ccc(C(=O)O)cc2)nc2ccc(O)cc12 : 5.00 to 6.00
O=C(O)c1ccc(-c2ccc3cc(O)ccc3n2)cc1 : > 7.00
O=C(O)c1ccc(NC(=O)c2ccc(O)cc2F)cc1 : 6.00 to 7.00
Cc1cc(C(=O)O)ccc1-c1ccc2cc(O)ccc2c1 : > 7.00
O=C(O)c1ccc(-c2cc(F)c3cc(O)ccc3c2)c(F)c1 : > 7.00
Oc1ccc2nc(-c3ccc(-c4nn[nH]n4)cc3)c(C(F)(F)F)nc2c1 : > 7.00
O=C(O)c1ccc(-c2ncc3cc(O)ccc3n2)c(Cl)c1 : > 7.00
COc1ccc(-c2oc3cc(O)ccc3c(=O)c2Oc2ccc(C(=O)O)cc2)cc1 : 5.00 to 6.00
CN(C)c1cc(C(=O)O)ccc1-c1ccc2cc(O)ccc2c1 : > 7.00
O=C(O)c1ccc(/C(=C\C(F)(F)F)C(=O)c2ccc(O)cc2O)cc1 : > 7.00
O=c1c(-c2ccc(-c3nnn[nH]3)cc2Cl)c(C(F)(F)F)oc2cc(O)ccc12 : > 7.00
Oc1ccc2nc(-c3ccc(-c4nn[nH]n4)cc3Cl)ccc2c1 : > 7.00
Cc1cc(C(=O)O)ccc1-c1ccc2c(F)c(O)ccc2c1 : > 7.00
COc1cc(C(=O)O)ccc1-c1ccc2cc(O)ccc2n1 : > 7.00
COCc1oc2cc(O)ccc2c(=O)c1-c1ccc(C(=O)O)cc1 : 6.00 to 7.00

---

Target: S-nitrosoglutathione reductase (GSNOR) (Homo sapiens, UniProt P11766)
Construct: made in house; host or cells: E. coli
Test: GSNOR assay (inhibition of GSNOR activity, NADH absorbance at 340 nm)
Assay type: biochemical
Details: GSNOR inhibitor activity, Tables 1-6; read-out: IC50 range
Procedure: Various compounds were tested in vitro for their ability to inhibit GSNOR activity. GSNOR expression and purification is described in Biochemistry 2000, 39, 10720-10729. […] GSNOR assay: GSNO and enzyme/NADH Solutions are made up fresh each day. […] The cuvette is placed in the Cary 3E UV/Visible Spectrophotometer and the change in 340 nm absorbance/min at 25° C. is recorded for 3 minutes. […] IC50's for each compound are calculated using the standard curve analysis in the Enzyme Kinetics Module of SigmaPlot. […]
Quantity: IC50

O=C(O)c1ccc(Oc2c(C(F)(F)F)oc3cc(O)ccc3c2=S)cc1 [Compound V-4] : 100 to 1000 nM
O=C(O)c1ccc(-c2ccc3c(Br)c(O)ccc3n2)cc1 [Compound I-45] : 100 to 1000 nM
O=C(C[C@H]1CC[C@H](C(=O)O)CC1)c1ccc(O)cc1O [VI-1] : 100 to 1000 nM
O=C(O)c1ccc(COc2ccc(O)c(F)c2)c(F)c1 [VI-23] : 100 to 1000 nM
O=c1c(-c2ccc(-c3nnn[nH]3)c(Cl)c2)c(C(F)(F)F)oc2cc(O)ccc12 [IV-42] : < 100 nM
Cc1cc(C(=O)O)ccc1-c1ccc2cc(O)ccc2n1 [Compound I-27] : < 100 nM
O=C(O)c1ccc(CC(=O)c2cc(F)c(O)cc2F)c(F)c1 [VI-7] : 100 to 1000 nM
O=C(O)c1ccc(NCc2ccc(O)c(F)c2)c(F)c1 [VI-31] : 1000 to 10000 nM
O=C(O)c1ccc(Oc2c(-c3ccc(F)cc3)oc3cc(O)ccc3c2=O)cc1 [Compound V-8] : 1000 to 10000 nM
